Assay comment: RP, Merck Supelco Ascentis Express C18, 100 × 2.1 mm, 2 µm, 40 °C, 0.4 mL/min, estimated dead time 0.55 min; A: water + 0.1% formic acid, pH 3; B: acetonitrile + 0.1% formic acid, pH 3; gradient (min/%B) 0/5 2/5 17/99.9 20/99.9
Condition info: stereoisomer not certain
Parameter measured: LC retention time (min)

# annotated cases, reported LC retention time shown
CC(O)(CCO)CC(=O)[O-] (stereo not given) [MEVALONATE] ... 0.72
CCCCCCCCCCCCCCCC(O)C(N)CO (stereo not given) [SPHINGANINE] ... 10.6
CSc1ncnc2nc[nH]c12 [THIOPURINE S-METHYLETHER] ... 3.37
CC(=O)NC(Cc1c[nH]c2ccccc12)C(=O)O (stereo not given) [N-ACETYLTRYPTOPHAN] ... 5.1
O=C(O)c1cccc(O)c1O [2,3-DIHYDROXYBENZOATE] ... 1.53
CCCCCCCCCCCCCC(=O)O [MYRISTATE] ... 14.3
O=C(C=Cc1ccc(O)c(O)c1)OC(Cc1ccc(O)c(O)c1)C(=O)O (stereo not given) [ROSMARINATE] ... 5.62
O=C(O)Cc1ccc(O)c(O)c1 [3,4-DIHYDROXYPHENYLACETATE] ... 1.95

(1) COc1ccc2[nH]cc(CCNC(C)=O)c2c1 [MELATONIN]
(2) O=Cc1ccc(O)cc1 [4-HYDROXYBENZALDEHYDE]
Query :: # compare LC retention time for 1 vs 2 ; return the one with the smaller value Label of pick, please.
Result :: 2
(2: 3.64 min, 1: 5.53 min)

* * *

Assay comment: RP, Merck Supelco Ascentis Express C18, 100 × 2.1 mm, 2 µm, 39 °C, 0.3 mL/min, estimated dead time 0.73 min; A: water + 0.1% formic acid, pH 3; B: acetonitrile + 0.1% formic acid, pH 3; gradient (min/%B) 0/5 2/5 17/99.9 20/99.9
Condition info: stereoisomer not certain
Parameter measured: LC retention time (min)

Field: example entries. Status: answers known.
Nc1ccccc1S(=O)(=O)O [ANILINE-2-SULFONATE] ... 1.18
O=C(O)c1ccc(=O)[nH]c1 [6-HYDROXYNICOTINATE] ... 1.06
O=c1[nH]c(=O)c2nccnc2[nH]1 [2,4-DIHYDROXYPTERIDINE] ... 0.967
NCCc1c[nH]c2ccc(O)cc12 [SEROTONIN] ... 1.12
CC(=O)NC(CCC(=O)O)C(=O)O (configuration not stated) [N-ACETYLGLUTAMATE] ... 0.897
O=C1CCCCO1 [5-VALEROLACTONE] ... 2.73
CC(O)c1ccccc1 (configuration not stated) [1-PHENYLETHANOL] ... 7.38
CCC=CCC=CCC=CCC=CCC=CCCCC(=O)O [EICOSAPENTAENOATE] ... 14.7
O=C(O)C(=O)Cc1c[nH]c2ccccc12 [INDOLE-3-PYRUVATE] ... 6.08
CC(C)=CCNc1ncnc2nc[nH]c12 [N6-(DELTA2-ISOPENTENYL)-ADENINE] ... 4.71

(P) CSc1ncnc2nc[nH]c12 [THIOPURINE S-METHYLETHER]
(Q) O=C(O)C=C(CC(=O)O)C(=O)O [TRANS-ACONITATE]
(R) NC(Cc1cc(I)c(Oc2cc(I)c(O)c(I)c2)c(I)c1)C(=O)O (configuration not stated) [THYROXINE]
(S) Cn1cnc2c1c(=O)[nH]c(=O)n2C [THEOBROMINE]
Query :: Give the ascending ranking of the items by reported LC retention time. # list labels per requested ordering
Result :: Q, S, P, R
(Q: 0.887 min, S: 1.78 min, P: 3.94 min, R: 8.11 min)

(P) CC(=O)NC(CC(C)C)C(=O)O (configuration not stated) [N-ACETYLLEUCINE]
(Q) CCCCCCCCCC(=O)O [DECANOATE]
(R) CC(=O)NCCCC(=O)O [4-ACETAMIDOBUTANOATE]
Query :: Arrange by LC retention time, high to low. Submit the labels in the order that the ranking request calls for.
Result :: Q, P, R

(1) Nc1nc2ncc(CNc3ccc(C(=O)NC(CCC(=O)O)C(=O)O)cc3)nc2c(=O)[nH]1 (configuration not stated) [FOLATE]
(2) CC(=O)Oc1cccc(O)c1 [RESORCINOL MONOACETATE]
Query :: Between the two listed entries 1 and 2 , which has its LC retention time at the higher number? API: response body contains the label of the selected item.
Result :: 2

(P) O=C(O)CCCCC1SCC2NC(=O)NC21 (configuration not stated) [BIOTIN]
(Q) Nc1nc2nc[nH]c2c(=O)[nH]1 [GUANINE]
Query :: Hi, I'm comparing P with Q and wondering which one has the bigger number for LC retention time. Any idea? Which one? Tell me its label.
Result :: P
